In this section we review reported Purity(%) at day 21 (5° C.) values for a set of compounds.
- test details: Effect of temperature (and pH) on the stability of the solution (purity)
- Format: physicochemical
- particulars: 7% solution in water, pH 5.0, day 21, 5° C.

Here are 4 compounds together with their reported answers.
CCN(CC)CCOC(=O)CC1=C(C)C(=Cc2ccc([S+](C)[O-])cc2)c2ccc(F)cc21.Cl (centres unmarked) ... 96.1 ± 0.2%
CCN(CC)CCOC(=O)Cc1c(C)n(C(=O)c2ccc(Cl)cc2)c2ccc(OC)cc12.Cl ... 97.0 ± 0.2%
CCN(CC)CCOC(=O)C(C)c1ccc(-c2ccccc2)c(F)c1.Cl (racemic) ... 97.6 ± 0.2%
CCN(CC)CCOC(=O)COC(=O)Cc1c(C)n(C(=O)c2ccc(Cl)cc2)c2ccc(OC)cc12.Cl ... 97.1 ± 0.2%

The compound listed as `CCN(CC)CCOC(=O)Cc1ccc(C(=O)c2ccc(C)cc2)n1C.Cl` has a reported Purity(%) at day 21 (5° C.) of 96.1 ± 0.2%
